Kindly supply the reported Log P values for the records listed here.
assay: Partition coefficient (log P butanol/buffer); format: physicochemical; settings: 50 mM Tris-HCl, pH 7.4, 10 μM, room temperature
# answer = number (no unit)

## Task What does the record list as Log P for CCOc1ccc(C[C@H]2CN(CC(=O)[O-])CCN(CC(=O)[O-])CCN(CC(=O)O)CCN2CC(=O)[O-])cc1.[Gd+3] (single isomer, unassigned; stereoisomer 2) [Example 11] ?
## Result −1.37

## Task Which Log P is reported for this compound? CCOCCOc1ccc(C[C@H]2CN(CC(=O)[O-])CCN(CC(=O)[O-])CCN(CC(=O)O)CCN2CC(=O)[O-])cc1.[Gd+3] [Example 4]
## Result −1.57

## Task Can you look up the measured Log P of CCOc1ccc(CC2CN(CC(=O)[O-])CCN(CC(=O)[O-])CCN(CC(=O)O)CCN2CC(=O)[O-])cc1.[Gd+3] (single isomer, unassigned; diastereomer 2) [Example 9] for me?
## Result −1.36

## Task Any idea what Log P was measured for O=C([O-])CN(CCN(CC(=O)[O-])CC(=O)[O-])CCN(CC(=O)[O-])C(COCc1ccccc1)C(=O)[O-].[Gd+3].[H+].[H+] (centres unmarked) [RC2, gadobenic acid] ?
## Result −2.07

## Task So what does the record say about Log P for CCOc1ccc(CC2CN(CC(=O)[O-])CCN(CC(=O)[O-])CCN(CC(=O)O)CCN2CC(=O)[O-])cc1.[Gd+3] (single isomer, unassigned; diastereomer 1) [Example 8] ?
## Result −1.33

Recorded values, source patent US20260365677A1.
